Data provenance: patent US6022969A

# target.or.test.system: tryptase
# experiment.description: In vitro tryptase inhibition assay (hydrolysis of tosyl-Gly-Pro-Lys-p-nitroanilide)
# settings: tosyl-Gly-Pro-Lys-p-nitroanilide 0.5 mM, pH 8.2, 1 h pre-incubation, room temperature
measurement.type: Ki (µM)
One number for each entry, in µM.

Solved cases (2 shown):
NCCCCCCNC(=O)N1CCN(C(=O)O[C@H]2CCC[C@@H](OC(=O)N3CCN(C(=O)NCCCCCCN)CC3)CCC2)CC1 [Compound 35]: 1.44
NCC12CCC(CNC(=O)N3CCN(C(=O)O[C@H]4CCC[C@@H](OC(=O)N5CCN(C(=O)NCC67CCC(CN)(CC6)CC7)CC5)CCC4)CC3)(CC1)CC2 (relative stereo) [Compound 15]: 0.302

With those in mind, consider the next molecule.
q: Which Ki is reported for this molecule? N=C(N)c1ccc(CC(=O)N2CCN(C(=O)O[C@H]3CCC[C@@H](OC(=O)N4CCN(C(=O)Cc5ccc(C(=N)N)cc5)CC4)CCC3)CC2)cc1 [Compound 24]
a: 0.00016

----------
# target.or.test.system: tryptase
# experiment.description: In vitro tryptase inhibition assay (hydrolysis of tosyl-Gly-Pro-Lys-p-nitroanilide)
# settings: tosyl-Gly-Pro-Lys-p-nitroanilide 0.5 mM, pH 8.2, 1 h pre-incubation, room temperature
Provide the recorded Ki for the entries that follow.
Numbers only, in µM.

Solved cases (6 shown):
NC[C@H]1CC[C@H](CNC(=O)OC2CCN(C(=O)O[C@H]3CCC[C@@H](OC(=O)N4CCC(OC(=O)NC[C@H]5CC[C@H](CN)CC5)CC4)CCC3)CC2)CC1 [Compound 43]: 1.45
NCCC1CCN(C(=O)N2CCN(C(=O)O[C@H]3CCC[C@@H](OC(=O)N4CCN(C(=O)N5CCC(CCN)CC5)CC4)CCC3)CC2)CC1 [Compound 19]: 1.51
NCCOCCNC(=O)N1CCN(C(=O)O[C@H]2CCC[C@@H](OC(=O)N3CCN(C(=O)NCCOCCN)CC3)CCC2)CC1 [Compound 38]: 0.75
N=C(N)Nc1ccc(CNC(=O)N2CCN(C(=O)OC[C@H]3CC[C@@H](COC(=O)N4CCN(C(=O)NCc5ccc(NC(=N)N)cc5)CC4)CC3)CC2)cc1 [Compound 49]: 0.0034
N=C(N)c1ccc(C(=O)NCC2CCN(C(=O)O[C@H]3CCC[C@@H](OC(=O)N4CCC(CNC(=O)c5ccc(C(=N)N)cc5)CC4)CCC3)CC2)cc1 [Compound 44]: 0.008
NCCC=CCNC(=O)N1CCN(C(=O)O[C@H]2CCC[C@@H](OC(=O)N3CCN(C(=O)NCC=CCCN)CC3)CCC2)CC1 [Compound 36]: 0.125

Batch request: Ki for each of the following molecules.
1. N=C(N)N1CCC(CCNC(=O)N2CCN(C(=O)O[C@H]3CCC[C@@H](OC(=O)N4CCN(C(=O)NCCC5CCN(C(=N)N)CC5)CC4)CCC3)CC2)CC1 [Compound 8]
2. N=C(N)Nc1ccc(CNC(=O)N2CCN(C(=O)O[C@H]3CCC[C@@H](OC(=O)N4CCN(C(=O)NCCCCCN)CC4)CCC3)CC2)cc1 [Compound 50]
3. N=C(N)Nc1ccc(CNC(=O)N2CCN(C(=O)OC3COC4C(OC(=O)N5CCN(C(=O)NCc6ccc(NC(=N)N)cc6)CC5)COC34)CC2)cc1 (stereo not drawn) [Compound 29]
4. NCCCCCNC(=O)N1CCN(C(=O)O[C@H]2CCC[C@@H](OC(=O)N3CCN(C(=O)NCCCCCN)CC3)CCC2)CC1 [Compound 34]
5. N=C(N)N1CCC(CC(=O)N2CCN(C(=O)O[C@H]3CCC[C@@H](OC(=O)N4CCN(C(=O)CC5CCN(C(=N)N)CC5)CC4)CCC3)CC2)CC1 [Compound 7]

a:
1: 0.03; 2: 0.00045; 3: 0.0038; 4: 0.011; 5: 0.005

q: Which Ki is reported for this molecule? N=C(N)Nc1ccc(CCC(=O)N2CCN(C(=O)O[C@H]3CCC[C@@H](OC(=O)N4CCN(C(=O)CCc5ccc(NC(=N)N)cc5)CC4)CCC3)CC2)cc1 [Compound 11]
a: 0.207

----------
# target.or.test.system: tryptase
# experiment.description: In vitro tryptase inhibition assay (hydrolysis of tosyl-Gly-Pro-Lys-p-nitroanilide)
# settings: tosyl-Gly-Pro-Lys-p-nitroanilide 0.5 mM, pH 8.2, 1 h pre-incubation, room temperature
Provide the recorded pKi for the entries that follow.
Give bare numbers, as −log10 of the molar value.

Solved cases (2 shown):
N=C(N)Nc1ccc(CNC(=O)CNC(=O)O[C@H]2CCC[C@@H](OC(=O)NCC(=O)NCc3ccc(NC(=N)N)cc3)CCC2)cc1 [Compound 2]: 8.70
N=C(N)N1CCC(CNC(=O)N2CCN(C(=O)O[C@H]3CCC[C@@H](OC(=O)N4CCN(C(=O)NCC5CCN(C(=N)N)CC5)CC4)CCC3)CC2)CC1 [Compound 27]: 6.21

With those in mind, consider the next compound.
q: # query: pKi | item NCC1CCN(C(=O)NCC2CCN(C(=O)OC[C@H]3CC[C@H](COC(=O)N4CCC(CNC(=O)N5CCC(CN)CC5)CC4)CC3)CC2)CC1 [Compound 23] | system: tryptase
a: 6.92

----------
# target.or.test.system: tryptase
# experiment.description: In vitro tryptase inhibition assay (hydrolysis of tosyl-Gly-Pro-Lys-p-nitroanilide)
# settings: tosyl-Gly-Pro-Lys-p-nitroanilide 0.5 mM, pH 8.2, 1 h pre-incubation, room temperature
Consider the cut-off 4 nM. If the recorded Ki is strictly smaller, the label is True; if not, the label is False.

Recorded results for 4 compounds are shown here.
NC[C@H]1CC[C@H](NC(=O)OC2CCN(C(=O)O[C@H]3CCC[C@@H](OC(=O)N4CCC(OC(=O)N[C@H]5CC[C@H](CN)CC5)CC4)CCC3)CC2)CC1: False
N=C(N)Nc1ccc(CNC(=O)N2CCN(C(=O)OCC3C4C=CC(CC4)C3COC(=O)N3CCN(C(=O)NCc4ccc(NC(=N)N)cc4)CC3)CC2)cc1 (stereo not drawn): False
NCCc1ccc(CC(=O)N2CCN(C(=O)O[C@H]3CCC[C@@H](OC(=O)N4CCN(C(=O)Cc5ccc(CCN)cc5)CC4)CCC3)CC2)cc1: True
N=C(N)Nc1ccc(CNC(=O)N2CCN(C(=O)O[C@H]3CCC[C@@H](OC(=O)N4CCN(C(=O)NCCCCN)CC4)CCC3)CC2)cc1: True

q: Dear reviewer, please state whether NCC[C@H]1CC[C@H](CC(=O)N2CCN(C(=O)O[C@H]3CCC[C@@H](OC(=O)N4CCN(C(=O)C[C@H]5CC[C@H](CCN)CC5)CC4)CCC3)CC2)CC1 has Ki strictly beneath 4 nM.
a: True

----------
# target.or.test.system: tryptase
# experiment.description: In vitro tryptase inhibition assay (hydrolysis of tosyl-Gly-Pro-Lys-p-nitroanilide)
# settings: tosyl-Gly-Pro-Lys-p-nitroanilide 0.5 mM, pH 8.2, 1 h pre-incubation, room temperature
Provide the recorded log10(Ki) for the entries that follow.
A value of 2 here means Ki of 100 in nM, since values are log10.

Solved cases (2 shown):
CC(CN)c1ccc(C(=O)N2CCN(C(=O)O[C@H]3CCC[C@@H](OC(=O)N4CCN(C(=O)c5ccc(C(C)CN)cc5)CC4)CCC3)CC2)cc1 (stereo partly drawn) [Compound 18]: 2.85
N=C(N)Nc1ccc(CNC(=O)N2CCN(C(=O)O[C@H]3CCC[C@@H](OC(=O)N4CCN(C(=O)NC[C@H]5CC[C@H](CN)CC5)CC4)CCC3)CC2)cc1 [Compound 52]: -0.32

Batch request: log10(Ki) for each of the following molecules.
1. N=C(N)c1ccc(CNC(=O)N2CCN(C(=O)O[C@H]3CCC[C@@H](OC(=O)N4CCN(C(=O)NCc5ccc(C(=N)N)cc5)CC4)CCC3)CC2)cc1 [Compound 28]
2. NC[C@H]1CC[C@H](C(=O)N2CCN(C(=O)O[C@H]3CCC[C@@H](OC(=O)N4CCN(C(=O)[C@H]5CC[C@H](CN)CC5)CC4)CCC3)CC2)CC1 [Compound 9]

a:
0.94
2.69

Batch request: log10(Ki) for each of the following molecules.
1. CN(CCOC(=O)N[C@H]1CC[C@H](CN)CC1)C(=O)O[C@H]1CCC[C@@H](OC(=O)N(C)CCOC(=O)N[C@H]2CC[C@H](CN)CC2)CCC1 [Compound 40]
2. CN(CCOC(=O)NC[C@H]1CC[C@H](CN)CC1)C(=O)O[C@H]1CCC[C@@H](OC(=O)N(C)CCOC(=O)NC[C@H]2CC[C@H](CN)CC2)CCC1 [Compound 41]

a:
3.14
3.04

----------
# target.or.test.system: tryptase
# experiment.description: In vitro tryptase inhibition assay (hydrolysis of tosyl-Gly-Pro-Lys-p-nitroanilide)
# settings: tosyl-Gly-Pro-Lys-p-nitroanilide 0.5 mM, pH 8.2, 1 h pre-incubation, room temperature
Consider the cut-off 400 nM. If the recorded Ki is strictly smaller, the label is y; if not, the label is n.

Recorded results for 3 compounds are shown here.
NC[C@H]1CC[C@H](CNC(=O)N2CCN(C(=O)OC[C@H]3CC[C@H](COC(=O)N4CCN(C(=O)NC[C@H]5CC[C@H](CN)CC5)CC4)CC3)CC2)CC1: y
N=C(N)c1ccc(CCNC(=O)N2CCN(C(=O)O[C@H]3CCC[C@@H](OC(=O)N4CCN(C(=O)NCCc5ccc(C(=N)N)cc5)CC4)CCC3)CC2)cc1: n
NCc1ccc(CNC(=O)N2CCN(C(=O)O[C@H]3CCC[C@@H](OC(=O)N4CCN(C(=O)NCc5ccc(CN)cc5)CC4)CCC3)CC2)cc1: y

q: Dear reviewer, please state whether N=C(N)Nc1ccc(CNC(=O)N2CCN(C(=O)C3CCCCC3C(=O)N3CCN(C(=O)NCc4ccc(NC(=N)N)cc4)CC3)CC2)cc1 (stereo not drawn) has Ki strictly beneath 400 nM.
a: n

q: Dear reviewer, please state whether NCCCCNC(=O)N1CCN(C(=O)O[C@H]2CCC[C@@H](OC(=O)N3CCN(C(=O)NCCCCN)CC3)CCC2)CC1 has Ki strictly beneath 400 nM.
a: n

q: Dear reviewer, please state whether N=C(N)Nc1ccc(C(=O)NCC2CCN(C(=O)O[C@H]3CCC[C@@H](OC(=O)N4CCC(CNC(=O)c5ccc(NC(=N)N)cc5)CC4)CCC3)CC2)cc1 has Ki strictly beneath 400 nM.
a: n
